Molecular target: rD2 (Rattus norvegicus)
Sequence (P61169 whole entry): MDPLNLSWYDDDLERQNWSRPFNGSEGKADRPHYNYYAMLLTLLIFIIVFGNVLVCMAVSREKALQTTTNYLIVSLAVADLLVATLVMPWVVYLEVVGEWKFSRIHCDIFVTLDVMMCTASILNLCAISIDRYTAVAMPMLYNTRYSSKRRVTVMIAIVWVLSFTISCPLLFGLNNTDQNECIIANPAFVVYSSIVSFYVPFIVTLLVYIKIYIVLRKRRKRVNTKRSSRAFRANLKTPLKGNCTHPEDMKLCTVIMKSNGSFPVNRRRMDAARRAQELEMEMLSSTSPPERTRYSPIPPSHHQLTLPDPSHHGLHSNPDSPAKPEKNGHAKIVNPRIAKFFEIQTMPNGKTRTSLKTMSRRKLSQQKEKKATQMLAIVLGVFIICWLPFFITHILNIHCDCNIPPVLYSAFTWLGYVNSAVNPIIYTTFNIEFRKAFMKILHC
Assay: NIMH PDSP selectivity binding, rD2
Details: rD2; read-out: Ki
pKi: −log10 of the molar value. Structures can show the parent of a compound that is named as a salt.

| COMPOUND | pKi |
| --- | --- |
| COc1ccc2[nH]c(-c3ccccc3)c(CCN(C)C)c2c1 [Compound D, oxalate] | ≤ 5.00 |

----------
Target: hD1 (Homo sapiens)
Sequence (P21728 whole entry): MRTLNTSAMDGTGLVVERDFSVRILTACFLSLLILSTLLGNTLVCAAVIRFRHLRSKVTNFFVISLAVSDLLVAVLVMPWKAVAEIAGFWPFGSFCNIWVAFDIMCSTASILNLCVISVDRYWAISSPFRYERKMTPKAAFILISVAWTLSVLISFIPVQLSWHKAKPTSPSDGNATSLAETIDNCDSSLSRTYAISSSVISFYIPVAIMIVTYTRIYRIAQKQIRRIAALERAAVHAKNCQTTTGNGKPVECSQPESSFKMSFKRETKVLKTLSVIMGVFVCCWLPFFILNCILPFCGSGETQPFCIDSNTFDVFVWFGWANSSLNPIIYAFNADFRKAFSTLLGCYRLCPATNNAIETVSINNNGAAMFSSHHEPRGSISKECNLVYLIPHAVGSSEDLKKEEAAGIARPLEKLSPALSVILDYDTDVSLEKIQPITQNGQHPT
Assay: NIMH PDSP selectivity binding, hD1
Settings: hD1; read-out: Ki
Where a name gives a salt, the structure may show the parent alone.

| MOLECULE | MEASURED TARGET | Ki |
| --- | --- | --- |
| COc1ccc2[nH]c(-c3ccccc3)c(CCN(C)C)c2c1 [Compound D, oxalate] | hD1 (Homo sapiens) | ≥ 10 µM |

----------
Biological target: human 5-HT6 (Homo sapiens)
Construct: expressed in transfected cells; host or cells: HEK 293
Sequence (P50406 whole entry): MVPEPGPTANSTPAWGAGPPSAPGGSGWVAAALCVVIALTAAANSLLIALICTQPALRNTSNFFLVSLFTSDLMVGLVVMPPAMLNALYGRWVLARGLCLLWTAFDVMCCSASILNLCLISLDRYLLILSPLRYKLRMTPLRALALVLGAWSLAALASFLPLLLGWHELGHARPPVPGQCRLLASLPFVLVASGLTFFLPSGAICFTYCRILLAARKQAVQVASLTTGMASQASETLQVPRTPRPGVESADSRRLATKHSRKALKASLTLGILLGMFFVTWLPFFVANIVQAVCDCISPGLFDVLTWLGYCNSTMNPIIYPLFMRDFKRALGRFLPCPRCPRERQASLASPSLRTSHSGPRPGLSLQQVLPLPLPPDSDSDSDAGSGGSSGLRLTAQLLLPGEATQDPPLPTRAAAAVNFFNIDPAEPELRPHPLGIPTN
Experiment: biochemical
Type: binding
Details: read-out: affinity for the 5-HT6 receptor, Ki
pKi: −log10 of the molar value.

| SMILES CODE | pKi |
| --- | --- |
| Cc1[nH]c2ccccc2c1CCN(C)C | 6.51 |

----------
Molecular target: hD5 (Homo sapiens)
Sequence (P21918 whole entry): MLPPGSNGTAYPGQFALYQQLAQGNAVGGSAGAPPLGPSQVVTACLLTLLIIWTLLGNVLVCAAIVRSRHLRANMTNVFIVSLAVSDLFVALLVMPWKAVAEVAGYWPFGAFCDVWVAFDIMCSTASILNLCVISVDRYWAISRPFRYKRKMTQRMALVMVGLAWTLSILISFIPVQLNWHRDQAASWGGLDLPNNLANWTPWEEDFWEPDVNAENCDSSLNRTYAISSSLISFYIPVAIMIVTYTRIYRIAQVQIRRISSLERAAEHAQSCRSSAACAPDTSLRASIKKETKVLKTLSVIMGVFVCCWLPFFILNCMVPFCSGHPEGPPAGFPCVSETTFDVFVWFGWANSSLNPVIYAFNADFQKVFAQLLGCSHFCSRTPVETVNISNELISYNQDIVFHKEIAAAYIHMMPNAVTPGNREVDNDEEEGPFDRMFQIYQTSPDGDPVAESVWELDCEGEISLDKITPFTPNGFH
Where a name gives a salt, the structure may show the parent alone.
The following molecules are listed with their measured Ki values.

| MOLECULE | Ki |
| --- | --- |
| COc1ccc2[nH]c(C)c(CCN(C)C)c2c1 | > 10 µM |
| CCc1[nH]c2ccc(OC)cc2c1CCN(C)C [Compound B, maleate] | > 10 µM |

----------
Biological target: rD4 (Rattus norvegicus)
Sequence (P30729 1-387): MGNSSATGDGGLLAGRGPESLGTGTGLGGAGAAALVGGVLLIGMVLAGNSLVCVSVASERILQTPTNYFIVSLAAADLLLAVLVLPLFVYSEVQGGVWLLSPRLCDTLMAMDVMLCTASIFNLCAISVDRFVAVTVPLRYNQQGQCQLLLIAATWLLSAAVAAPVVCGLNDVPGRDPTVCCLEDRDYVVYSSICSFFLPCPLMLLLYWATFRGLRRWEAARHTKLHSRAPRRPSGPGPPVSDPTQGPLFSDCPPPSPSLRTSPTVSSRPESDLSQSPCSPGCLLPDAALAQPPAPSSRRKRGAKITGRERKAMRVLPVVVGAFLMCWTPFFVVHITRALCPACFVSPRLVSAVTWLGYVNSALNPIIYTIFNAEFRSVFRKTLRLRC
Assay: NIMH PDSP selectivity binding, rD4
pKi: −log10 of the molar value. Counter-ions that a name gives are not always drawn.

| COMPOUND | MEASURED TARGET | pKi |
| --- | --- | --- |
| COc1ccc2[nH]c(C)c(CCN(C)C)c2c1 | rD4 (Rattus norvegicus) | < 5.00 |
| CCc1[nH]c2ccc(OC)cc2c1CCN(C)C [Compound B, maleate] | rD4 (Rattus norvegicus) | < 5.00 |

----------
Molecular target: rD2 (Rattus norvegicus)
Assay: NIMH PDSP selectivity binding, rD2
Counter-ions that a name gives are not always drawn.

| COMPOUND | Ki |
| --- | --- |
| CCc1[nH]c2ccc(OC)cc2c1CCN(C)C [Compound B, maleate] | > 10 µM |
| COc1ccc2[nH]c(C)c(CCN(C)C)c2c1 | > 10 µM |
